Tested on: Diet Induced Obese (DIO) C57BL/6 mice
Assay: 10 day DIO mouse model (body weight, food intake, hematology, blood chemistry)
Format: in vivo
Conditions: 240 h; DIO mouse, 0.3 mpk sc, once a day for 10 days; read-out: DIO Mouse 10-day weight loss vs vehicle
Structures can show the parent of a compound that is named as a salt.
Experimental Endpoint: inhibition in vivo at 0.3 mg/kg (%)
// note: answer is a bare numeric in %

Q: Record "CNC(=O)NC1CN(C(=O)O[C@@H]2CC[C@]3(CO3)[C@@H]([C@@]3(C)O[C@@H]3CC=C(C)C)[C@@H]2OC)C1" : what is its inhibition in vivo at 0.3 mg/kg with Diet Induced Obese (DIO) C57BL/6 mice?
Result: 0.8

Q: How about this molecule: CCN(CC)CCC1CCN(C(=O)O[C@@H]2CC[C@]3(CO3)[C@@H]([C@@]3(C)O[C@@H]3CC=C(C)C)[C@@H]2OC)C1 (stereo in doubt)
Result: 7.2

Q: Follow-up item: "CO[C@@H]1[C@H](OC(=O)N2CC(Oc3ccccn3)C2)CC[C@]2(CO2)[C@H]1[C@@]1(C)O[C@@H]1CC=C(C)C"
Result: 22.9

Q: Try this molecule next: "CO[C@@H]1[C@H](OC(=O)N2CC(OC(=O)N(C)C)C2)CC[C@]2(CO2)[C@H]1[C@@]1(C)O[C@@H]1CC=C(C)C"
Result: 16.3

Q: Now this one: "CO[C@@H]1[C@H](OC(=O)N2CC(OC(=O)N3CCS(=O)(=O)CC3)C2)CC[C@]2(CO2)[C@H]1[C@@]1(C)O[C@@H]1CC=C(C)C"
Result: 0.1

Q: Could you do the same for "CO[C@@H]1[C@H](OC(=O)N2CC(OC(=O)N3CCN(CC(F)F)CC3)C2)CC[C@]2(CO2)[C@H]1[C@@]1(C)O[C@@H]1CC=C(C)C" , please?
Result: 16.5

Q: Subsequent entry: "CO[C@@H]1[C@H](OC(=O)N2CC(CCN3CCOCC3)C2)CC[C@]2(CO2)[C@H]1[C@@]1(C)O[C@@H]1CC=C(C)C"
Result: 16.8

Q: Try this molecule too: "CCN(CC)CCC1CN(C(=O)O[C@@H]2CC[C@]3(CO3)[C@@H]([C@@]3(C)O[C@@H]3CC=C(C)C)[C@@H]2OC)C1"
Result: 6.7

Q: Also "CO[C@@H]1[C@H](OC(=O)N2CC(CCN3CCNC(=O)C3)C2)CC[C@]2(CO2)[C@H]1[C@@]1(C)O[C@@H]1CC=C(C)C" , if possible.
Result: 1.1

Q: Request: CO[C@@H]1[C@H](OC(=O)/C=C/c2ccc(OCCN(C)C)cc2)CC[C@]2(CO2)[C@H]1[C@@]1(C)O[C@@H]1CC=C(C)C [A, reference compound]
Result: 18

Q: Follow-up item: CCN(CC)CC[C@H]1CCN(C(=O)O[C@@H]2CC[C@]3(CO3)[C@@H]([C@@]3(C)O[C@@H]3CC=C(C)C)[C@@H]2OC)C1 [Example 52]
Result: 8.3

Q: Same again, this time with "CO[C@@H]1[C@H](OC(=O)N2CC(CN3CCOCC3)C2)CC[C@]2(CO2)[C@H]1[C@@]1(C)O[C@@H]1CC=C(C)C"
Result: 14.7

Q: Follow-up item: "CNC(=O)CC1CN(C(=O)O[C@@H]2CC[C@]3(CO3)[C@@H]([C@@]3(C)O[C@@H]3CC=C(C)C)[C@@H]2OC)C1"
Result: 0.5

Q: Next molecule: "CCNCCC1CN(C(=O)O[C@@H]2CC[C@]3(CO3)[C@@H]([C@@]3(C)O[C@@H]3CC=C(C)C)[C@@H]2OC)C1"
Result: 7.5

Q: Query "CO[C@@H]1[C@H](OC(=O)N2CC(CCN3CCN(S(C)(=O)=O)CC3)C2)CC[C@]2(CO2)[C@H]1[C@@]1(C)O[C@@H]1CC=C(C)C" next
Result: 0.1

Q: Same question, CCN(CC)C[C@H]1CCN(C(=O)O[C@@H]2CC[C@]3(CO3)[C@@H]([C@@]3(C)O[C@@H]3CC=C(C)C)[C@@H]2OC)C1 [Example 38, formate] this time
Result: 6.7

Q: Queued: "CO[C@@H]1[C@H](OC(=O)N2CC(Nc3ccccn3)C2)CC[C@]2(CO2)[C@H]1[C@@]1(C)O[C@@H]1CC=C(C)C"
Result: 12.6

Q: Next entry: "CO[C@@H]1[C@H](OC(=O)N2CC(CCn3ccnc3)C2)CC[C@]2(CO2)[C@H]1[C@@]1(C)O[C@@H]1CC=C(C)C"
Result: 3

Q: Please answer likewise for "CNC(=O)OCC1CN(C(=O)O[C@@H]2CC[C@]3(CO3)[C@@H]([C@@]3(C)O[C@@H]3CC=C(C)C)[C@@H]2OC)C1"
Result: 12.7

Q: Also, "CO[C@@H]1[C@H](OC(=O)N2CC(CCN3CCOCC3=O)C2)CC[C@]2(CO2)[C@H]1[C@@]1(C)O[C@@H]1CC=C(C)C" please.
Result: 1.7

Q: Then this molecule: "CO[C@@H]1[C@H](OC(=O)N2CC(CCN3CCC(F)(F)CC3)C2)CC[C@]2(CO2)[C@H]1[C@@]1(C)O[C@@H]1CC=C(C)C"
Result: 18.2

Q: Param item: "CO[C@@H]1[C@H](OC(=O)N2CC(CCN3CCC(C)(C#N)CC3)C2)CC[C@]2(CO2)[C@H]1[C@@]1(C)O[C@@H]1CC=C(C)C"
Result: 10.7

Q: Then "CO[C@@H]1[C@H](OC(=O)N2CC(CCN3CCN(CC(F)F)CC3=O)C2)CC[C@]2(CO2)[C@H]1[C@@]1(C)O[C@@H]1CC=C(C)C" ?
Result: 21.3

Q: Moving on to "CO[C@@H]1[C@H](OC(=O)N2CC(CCN3CCC(F)(F)C3)C2)CC[C@]2(CO2)[C@H]1[C@@]1(C)O[C@@H]1CC=C(C)C"
Result: 16.8
